- TARGET_SYSTEM: T1, human OT7T175 (metastin receptor) (human, UniProt Q969F8 1-398)
- T1 construct: expressed on CHO cells (hOT7T175-expressed CHO cells; hOT7T175/CHO); also called hOT7T175; h0T7T175
- T1 sequence (Q969F8 whole entry L364H): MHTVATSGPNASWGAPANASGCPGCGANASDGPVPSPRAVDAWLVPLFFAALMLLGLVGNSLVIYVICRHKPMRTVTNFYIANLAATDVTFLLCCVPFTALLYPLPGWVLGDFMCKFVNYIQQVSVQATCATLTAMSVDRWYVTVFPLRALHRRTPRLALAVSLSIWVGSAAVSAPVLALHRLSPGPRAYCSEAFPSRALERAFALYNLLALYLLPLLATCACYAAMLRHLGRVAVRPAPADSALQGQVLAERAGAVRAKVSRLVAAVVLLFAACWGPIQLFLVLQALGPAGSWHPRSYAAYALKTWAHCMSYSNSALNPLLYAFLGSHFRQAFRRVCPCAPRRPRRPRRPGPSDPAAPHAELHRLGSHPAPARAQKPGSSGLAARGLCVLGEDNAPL
- TEST_SUMMARY: FMAT competition with Cy-5-labeled metastin (40-54), hOT7T175-expressed CHO cells
Square brackets hold non-standard residues; d marks the D form. Ends that are not written are not given here. Arg(Me) = CNC(=N)NCCC[C@H](N)C(=O)O; azaGly = NNC(=O)O
RESULT_TYPE: pIC50
Scale: negative log10 of molar concentration, which is what pIC50 denotes.

QUERY: If you can, please state the reported pIC50 value of [dY]QWNSFGL[Arg(Me)]F-NH2 (N-terminus assumed; SMILES CNC(=N)NCCC[C@H](NC(=O)[C@H](CC(C)C)NC(=O)CNC(=O)[C@H](Cc1ccccc1)NC(=O)[C@H](CO)NC(=O)[C@H](CC(N)=O)NC(=O)[C@H](Cc1c[nH]c2ccccc12)NC(=O)[C@H](CCC(N)=O)NC(=O)[C@H](N)Cc1ccc(O)cc1)C(=O)N[C@@H](Cc1ccccc1)C(N)=O) [Compound No. 214: [D-Tyr1,Gln2,Arg(Me)9]MS10] .
RESULT: 6.41

QUERY: Given the entry [dY]NINSF[azaGly]L[Arg(Me)]F-NH2 (N-terminus assumed; SMILES CC[C@H](C)[C@H](NC(=O)[C@H](CC(N)=O)NC(=O)[C@H](N)Cc1ccc(O)cc1)C(=O)N[C@@H](CC(N)=O)C(=O)N[C@@H](CO)C(=O)N[C@@H](Cc1ccccc1)C(=O)NNC(=O)N[C@@H](CC(C)C)C(=O)N[C@@H](CCCNC(=N)NC)C(=O)N[C@@H](Cc1ccccc1)C(N)=O) [Compound No. 233: [D-Tyr1,Ile3,AzaGly7,Arg(Me)9]MS10] , report its measured pIC50.
RESULT: 7.64
